# Tested on: IL-1-dependent PGE^2
# ASSAY_PROCEDURE: IL-1-dependent PGE2 inhibition test in human rheumatoid synovial cell lines
# Assay type: cell-based
# EXPERIMENTAL_CONTEXT: recombinant human IL-1 alpha 0.1 ng/ml, 7 hours, 37° C., read-out: IC50 (concentration reducing PGE2 release to 50% of IL-1-stimulated control values)
pIC50: −log10 of the molar value.
// NOT MET strictly below 6 in pIC50; MET otherwise

| MOLECULE | ANSWER_LABEL |
| --- | --- |
| O=C(O)[C@H]1[C@H]2CCc3c(-c4ccc(Cl)cc4)noc3[C@H]21 (relative stereo) [Compound C] | MET |
| C[C@H]1CC[C@H](C(=O)O)Cc2onc(-c3ccc(Cl)cc3)c21 (relative stereo) [Compound E] | MET |
| O=C(O)C1CCc2onc(-c3ccc(Cl)cc3)c2CC1 (single isomer, unassigned; (+)) [Compound A] | NOT MET |
| O=C(O)C1CCCc2c(-c3ccc(Cl)cc3)noc2C1 (stereo not drawn) [Compound B] | NOT MET |
| CO[C@@H]1CC[C@@H](C(=O)O)Cc2onc(-c3ccc(Cl)cc3)c21 (relative stereo) [Compound D] | NOT MET |
